I'd be grateful if you could share measured protein stability index for these entries.
B1: CDKL4 (parent)
chain: AVKKFVESEDDPVVKKIALREIRM

Variants of: B1
Assay Name: protein stability index of a GFP-peptide fusion (GPS, HEK-293T) (PSI 1-6); higher = more stable;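 also: lentivirally expressed fusions sorted by FACS into six bins by GFP to DsRed ratio, PSI derived from sequencing read proportions per bin multiplied by bin number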
Test Settings: c terminus: a fixed tail appended
One number for each entry.

Worked examples follow.
- Residues: "AVKKFVASEDDPVVKKIALREIRM [E7A]"
  protein stability index: 2.99
- Residues: "AVKKIVESEDDPVVKKIALREIRM [F5I]"
  protein stability index: 2.94
- Residues: "AVKKFVESEDDAVVKKIALREIRM [P12A]"
  protein stability index: 3.04

// next item, protein stability index requested
Ask | Look up protein stability index: AVKKFVPSEDDPVVKKIALREIRM [E7P]
Reply | 2.97
